Cited source: patent US20220153834A1

ASSAY SYSTEM: Recombinant human TSG-6 (R&D Biosystems, catalog #2104-TS) (human, UniProt P98066 18-277)
Sequence (P98066 18-277): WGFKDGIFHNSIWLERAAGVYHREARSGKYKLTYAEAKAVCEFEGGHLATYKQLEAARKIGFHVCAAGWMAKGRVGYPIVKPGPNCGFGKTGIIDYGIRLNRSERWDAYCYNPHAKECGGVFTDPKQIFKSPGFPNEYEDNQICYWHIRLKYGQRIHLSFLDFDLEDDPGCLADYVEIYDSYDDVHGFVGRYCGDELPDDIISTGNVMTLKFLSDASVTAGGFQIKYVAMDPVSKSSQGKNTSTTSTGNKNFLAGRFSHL
ASSAY METHOD TEXT: inhibition of HC-HA transesterase activity; HC-HA transesterase
VALUE KIND: IC50 (nM)
Your answer is read as nM, so omit the unit and give the number.

Quick check: IC50 of 3E1 (antibody, V domains shown) VH: QVQLQQSGAELAKPGASVRLSCQASGYTFTSYWMHWVKQRPRQGLEWIGYIIPSSGYTKCHQKFKDKATLTADKSSSTAYMQLSSLTYEDSAVYYCARSTSGYPYYFDSWGQGTTLTVSS VL: ENVLTQSPAIMSASPGERVTMTCSATSSVSFMHWYQQKSSTSPKLWIYDTSKLASGVPGRFSGSGSGNSYSLTISSMEAEDVATYYCFQGSWYPLTFGAGTKLELKR ?
10

Quick check: IC50 of 4F1 (antibody, V domains shown) VH: EVKLVESGGGLVQPGGSLSLSCAASGFTFTDYYMSWVRQPPGKALEWLGFIRHKAKGYTAEYSASVKGRFTISRDNSQSILYLQMNALRAEDSATYYCARLYYYGSPHWYFDVWGTGTTVTVSS VL: QIVLTQSPAIMSASPGEKVTMTCSASSSVSYMHWYQQKSGTSPKRWIYDTSKLASGVPARFSGSGSGTSYSLTISSMEAEDAATYYCQQWSSNPPTFGSGTELEIKR ?
44

Quick check: IC50 of 5D9 (antibody, V domains shown) VH: QVQLQQSGAELARPGASVKLSCKASDDTFINYGINWVKQRTGQGLEWIGETFPSNGNTFYNEKFKGKATLTADRSSSTTYMELRSLTSEDAAVYFCARHSNLPYFDHWGQGSTLTVSS VL: DIVMTQSPSSLSVSAGEKVTMSCKSSQSLLNSGNQKNYLAWYQQKPGQPPKLLIYGASTRESGVPERFTGSGSGTDFTLTISSVQAEDLAVYYCQNDHSYPFTFGGGTNLEIKR ?
4
